Record set: IC50 | Coagulation factor X (Homo sapiens, UniProt P00742) | literature, multiple sources.
readout-type: IC50

INSERT INTO results (compound, readout_type, value) VALUES
  ('Nc1nccc2c(NCC34CC(COc5ccn6cnnc6c5)(CCO3)C4)cccc12', 'IC50', '> 40 µM'),
  ('Cc1cc(CN)cc(-n2nc(C(=O)O)c3c2C(=O)N(c2ccc4c(c2)C(=O)N(C)CC4)CC3)c1', 'IC50', '10 to 40 µM'),
  ('CCNC(=O)c1nn(-c2cccc(Cl)c2)c2c1CCN(c1cccc(N3C(=O)CC4CC43)c1)C2=O (stereo not drawn)', 'IC50', '10 to 40 µM'),
  ('Cn1ccc(CNC(=O)c2nn(-c3cccc(Cl)c3)c3c2CCN(c2ccc4c(c2)CN(CCO)CC4)C3=O)n1', 'IC50', '10 to 40 µM'),
  ('CN1CCC(COc2ccc(CNc3ccc4cnccc4c3)cn2)CC1', 'IC50', '> 20 µM'),
  ('Nc1nccc2c(NCC34CC(COc5ccn6cnnc6c5)(CO3)C4)cccc12', 'IC50', '> 40 µM'),
  ('CN1CCC(OCc2ccc(CNc3cccc4c(N)nccc34)cc2)CC1', 'IC50', '10 to 40 µM'),
  ('Cc1cc(CNC(=O)c2nn(-c3cccc(Cl)c3)c3c2CN(c2ccc4c(c2)CN(CCO)CC4)C3=O)nn1C', 'IC50', '> 40 µM'),
  ('Cc1ccncc1CNC(=O)c1nn(-c2cccc(Cl)c2)c2c(=O)n(-c3ccc4c(c3)C(=O)N(CCO)CC4)c(C)nc12', 'IC50', '10 to 40 µM'),
  ('O=C(NCC1CC1(F)F)c1nn(-c2cccc(Cl)c2)c2c1CCN(c1ccc3c(c1)CN(CCO)CC3)C2=O (stereo not drawn)', 'IC50', '> 40 µM'),
  ('Cc1nc2c(CNC(=O)C3CC3)nn(-c3cccc(Cl)c3)c2c(=O)n1-c1ccc2c(c1)CN(CCO)CC2', 'IC50', '3 to 10 µM'),
  ('CN1CCC(OCc2ccc(CNc3ccc4c(N)nccc4c3)cc2)CC1', 'IC50', '3 to 10 µM'),
  ('Cc1cnccc1CNC(=O)c1nn(-c2cccc(Cl)c2)c2c1CCN(c1ccc3c(c1)C(=O)N(CCO)CC3)C2=O', 'IC50', '> 40 µM'),
  ('Cn1cc(Cl)c(CNC(=O)c2nn(-c3cccc(Cl)c3)c3c2CCN(c2ccc4c(c2)CN(CCO)CC4)C3=O)n1', 'IC50', '10 to 40 µM'),
  ('CC(=O)N1CCCc2ccc(N3CCc4c(C(=O)NCc5cnccc5C)nn(-c5cccc(Cl)c5)c4C3=O)cc21', 'IC50', '10 to 40 µM');

* * *

The following molecules were reported with IC50 values on UniProt:P00742 in different studies.
readout-type: IC50

INSERT INTO measurements (molecule, value) VALUES
  ('CN1CCc2ccc(N3CCc4c(C(=O)NCC5CC5)nn(-c5cccc(CN)c5)c4C3=O)cc2C1=O', '10 to 40 µM'),
  ('Cc1ccc(CNC(=O)c2nn(-c3cccc(Cl)c3)c3c2CCN(c2ccc4c(c2)CN(CCO)CC4)C3=O)cn1', '10 to 40 µM'),
  ('Nc1nccc2c(NCC34COC(COc5ccc6nnc(C(F)F)n6n5)(C3)C4)cccc12', '> 40 µM'),
  ('Nc1nccc2c(N3CCC4(CC(COc5ccn6ccnc6c5)C4)C3)cccc12 (single isomer, unassigned)', '> 40 µM'),
  ('Nc1nccc2c(NCc3ccc(N4CCn5c(nnc5C(F)F)C4)nc3)cccc12', '> 40 µM'),
  ('CCN1CCc2ccc(N3CCc4c(C(=O)NCC5CC5)nn(-c5cccc(Cl)c5)c4C3=O)cc2C1', '10 to 40 µM'),
  ('COc1nnc2n1CCN(c1ccc(CNc3cccc4c(N)nccc34)cn1)C2', '> 40 µM'),
  ('Cc1ccncc1CNC(=O)c1nn(-c2cccc(Cl)c2)c2c1CCN(c1ccc3c(c1)C(=O)N(CCCO)CCO3)C2=O', '3 to 10 µM'),
  ('Nc1nccc2c(NCC34CC(COc5ccc6nccn6c5)(C3)C4)cccc12', '10 to 40 µM'),
  ('CN1CCC(COc2cc(CNc3ccc4cnccc4c3)ccn2)CC1', '10 to 40 µM'),
  ('CN1CCC(CNc2ccc(CNc3ccc4cnccc4c3F)cn2)CC1', '> 40 µM'),
  ('O=C(NCc1cncc(F)c1)c1nn(-c2cccc(Cl)c2)c2c1CCN(c1ccc3c(c1)CN(CCO)CC3)C2=O', '10 to 40 µM'),
  ('Cn1ccc(OCC23CCOC(CNc4cccc5c(N)nccc45)(C2)C3)nc1=O', '> 40 µM'),
  ('CC(C)N1CCC(COc2ccc(CNc3ccc4c(N)nccc4c3)cn2)CC1', '10 to 40 µM'),
  ('CN1CCc2ccc(N3CCc4c(C(=O)NCC5CCCCC5)nn(-c5cccc(Cl)c5)c4C3=O)cc2C1', '3 to 10 µM'),
  ('Cn1ccnc1COCc1ccc(CNc2cccc3c(N)nccc23)c(F)c1', '10 to 40 µM'),
  ('CCN1Cc2cc(N3CCc4c(C(=O)NCc5cnccc5C)nn(-c5cccc(Cl)c5)c4C3=O)ccc2[C@@H](C)C1', '10 to 40 µM'),
  ('CCN1CCc2ccc(N3CCc4c(C(=O)NC5COCC5(C)C)nn(-c5cccc(Cl)c5)c4C3=O)cc2C1 (stereo not drawn)', '> 40 µM');

* * *

pIC50: −log10 of the molar value.
This section presents pIC50 values reported for Coagulation factor X (Homo sapiens) in the literature.
readout-type: pIC50

INSERT INTO results (compound, value) VALUES
  ('Cc1cc(CNC(=O)c2nn(-c3cccc(Cl)c3)c3c2CCN(c2ccc4c(c2)C(=O)N(C)CC4)C3=O)n(C)n1', '4.40 to 5.00'),
  ('O=C(NCc1ccccc1)c1nn(-c2cccc(Cl)c2)c2c1CCN(c1cccc(CN3CCCCC3)c1)C2=O', '< 4.40'),
  ('O=C(NCc1ncccc1F)c1nn(-c2cccc(Cl)c2)c2c1CCN(c1ccc3c(c1)CN(CCO)CC3)C2=O', '4.40 to 5.00'),
  ('CCNC(=O)c1nn(-c2cc(Cl)ccc2C)c2c1CCN(c1ccc3c(c1)C(=O)N(C)CC3)C2=O', '< 4.40'),
  ('Cc1cc2c(NCC34CC(COc5ccn6ccnc6c5)(CO3)C4)ccnc2[nH]1', '4.40 to 5.00'),
  ('Cc1ncccc1CNC(=O)c1nn(-c2cccc(Cl)c2)c2c1CCN(c1ccc3c(c1)CN(CCO)CC3)C2=O', '4.40 to 5.00'),
  ('Nc1nccc2c(NCC34CC(COc5ccc6c(c5)C(=O)NC6)(C3)C4)cccc12', '4.40 to 5.00'),
  ('CN1CC2C[C@H]1C[C@H]2OCc1ccc(CNc2ccc3c(N)nccc3c2)c(F)c1 (single isomer, unassigned)', '5.00 to 5.52'),
  ('Cn1ccnc1CCOc1cc(CNc2ccc3c(N)nccc3c2)ccn1', '5.00 to 5.52'),
  ('CO[C@H]1CCOC[C@H]1NC(=O)c1nn(-c2cccc(Cl)c2)c2c1CCN(c1ccc3c(c1)C(=O)N(C)CC3)C2=O', '< 4.40'),
  ('Cc1cc(CNC(=O)c2nn(-c3cccc(Cl)c3)c3c2CCN(c2ccc4c(c2)C(=O)N(C)CC4)C3=O)n[nH]1', '4.40 to 5.00'),
  ('COc1ccc(CNC(=O)c2nn(-c3cccc(Cl)c3)c3c2CCN(c2ccc4c(c2)C(=O)N(C)CC4)C3=O)cn1', '< 4.40'),
  ('CCNC(=O)c1nn(-c2cccc(Cl)c2)c2c1CCN(c1ccc(OC)c(N3CCCC3=O)c1)C2=O', '< 4.40'),
  ('O=C(O)CN1CCc2ccc(N3CCc4c(C(=O)NCC5CC5)nn(-c5cccc(Cl)c5)c4C3=O)cc2C1=O', '< 4.40'),
  ('Nc1nccc2c(NCc3ccnc(OCC4CCn5c(nnc5C(F)F)C4)c3)cccc12 (centres unmarked)', '4.40 to 5.00'),
  ('N#Cc1nn(-c2cccc(Cl)c2)c2c(=O)n(-c3ccc4c(c3)CN(CCO)CC4)cnc12', '6.00 to 6.52'),
  ('CN(C)C(=O)c1cccc(N2CCc3c(C(=O)NCC4CC4)nn(-c4cccc(Cl)c4)c3C2=O)c1', '< 4.40');

* * *

pIC50: −log10 of the molar value.
Multi-source literature compilation: pIC50 on Coagulation factor X (Homo sapiens, UniProt P00742).
readout-type: pIC50

INSERT INTO measurements (smiles_input, value) VALUES
  ('CN1CCC(CCc2ccc(CNc3cccc4c(N)nccc34)cc2)CC1', '< 4.40'),
  ('CCNC(=O)c1nn(-c2cccc(Cl)c2)c2c1CCN(c1cccc(N3CCCOC3=O)c1)C2=O', '< 4.40'),
  ('CN1CCc2ccc(N3CCc4c(C(=O)NCC5CC5)nn(-c5cccc(C(N)=O)c5)c4C3=O)cc2C1=O', '< 4.40'),
  ('CCCN1CCc2ccc(N3CCc4c(C(=O)NCc5cc(C)n(C)n5)nn(-c5cccc(Cl)c5)c4C3=O)cc2C1=O', '< 4.40'),
  ('CCNC(=O)c1nn(-c2cncc(C)c2)c2c1CCN(c1ccc3c(c1)C(=O)N(C)CC3)C2=O', '< 4.40'),
  ('Cc1cc(CNC(=O)c2nn(-c3cccc(Cl)c3)c3c(=O)n(-c4ccc5c(c4)C(=O)N(C)CC5)c(C)nc23)nn1C', '4.40 to 5.00'),
  ('CN1CCc2ccc(N3CCc4c(C(=O)NC5COC5)nn(-c5cccc(Cl)c5)c4C3=O)cc2C1=O', '< 4.40'),
  ('Nc1nccc2c(NCC34CC(COc5ccn6ccnc6c5)(CO3)C4)cccc12', '4.40 to 5.00');
